- TESTED_TARGET: TRAP1 enzyme (Homo sapiens, UniProt Q12931)
- Sequence (Q12931 60-704): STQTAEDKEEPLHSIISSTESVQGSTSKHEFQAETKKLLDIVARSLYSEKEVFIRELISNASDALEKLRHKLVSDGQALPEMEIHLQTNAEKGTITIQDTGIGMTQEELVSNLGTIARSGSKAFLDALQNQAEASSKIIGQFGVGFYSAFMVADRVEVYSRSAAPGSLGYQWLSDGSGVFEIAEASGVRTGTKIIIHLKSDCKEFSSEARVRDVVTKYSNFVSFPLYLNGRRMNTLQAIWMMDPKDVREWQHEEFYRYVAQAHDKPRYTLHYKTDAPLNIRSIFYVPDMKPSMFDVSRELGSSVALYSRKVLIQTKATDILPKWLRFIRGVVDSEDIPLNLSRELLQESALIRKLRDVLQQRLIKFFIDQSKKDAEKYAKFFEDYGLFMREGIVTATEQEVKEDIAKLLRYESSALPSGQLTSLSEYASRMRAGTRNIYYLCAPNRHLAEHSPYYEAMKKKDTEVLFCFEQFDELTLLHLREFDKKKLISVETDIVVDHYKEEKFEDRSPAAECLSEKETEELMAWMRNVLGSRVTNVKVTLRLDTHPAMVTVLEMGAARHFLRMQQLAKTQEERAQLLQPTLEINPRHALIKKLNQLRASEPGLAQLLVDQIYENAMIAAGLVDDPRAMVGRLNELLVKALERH
- EXPERIMENT: ADP Glo assay of TRAP1 ATPase activity
- Type: biochemical
- RECORDED_CONDITIONS: TRAP1 ATPase activation, 150 nM Trap1, 20 μM ATP, geometric mean; read-out: ADP GLO DRC: GeoMean EC50
pEC50: −log10 of the molar value.
EXPERIMENTAL_READOUT: pEC50

Below, each entry is followed by its recorded pEC50 result.
Consider the compound `COc1ccc(NC(=O)c2ccccc2C2CC2)cc1S(=O)(=O)Nc1c(C)cccc1C` and give its measured pEC50.
4.70 to 5.00

Consider the compound `COc1ccc(NC(=O)c2cccc(-n3cncn3)c2)cc1S(=O)(=O)Nc1c(C)cccc1C` and give its measured pEC50.
4.70 to 5.00

Consider the compound `COc1ccc(NC(=O)c2cncc(Br)c2C)cc1S(=O)(=O)Nc1c(C)cccc1C` and give its measured pEC50.
4.70 to 5.00

Consider the compound `COc1ccc(NC(=O)c2ncc(-c3ccccc3)o2)cc1S(=O)(=O)Nc1c(C)ccnc1OC` and give its measured pEC50.
4.70 to 5.00

Others:
Consider the compound `COc1ccc(NC(=O)c2ccc(-c3ccccc3C(F)(F)F)o2)cc1S(=O)(=O)Nc1c(C)cccc1C` and give its measured pEC50.
> 5.00

Consider the compound `COc1ccc(NC(=O)c2coc(-c3cc(F)c(F)c(F)c3)n2)cc1S(=O)(=O)Nc1c(C)csc1C` and give its measured pEC50.
> 5.00

Consider the compound `COc1ccc(NC(=O)c2nccs2)cc1S(=O)(=O)Nc1c(C)cccc1C` and give its measured pEC50.
4.00 to 4.70

Consider the compound `Cc1ncc(Br)cc1C(=O)Nc1ccc(F)c(S(=O)(=O)Nc2ccc(Cl)cc2)c1` and give its measured pEC50.
4.70 to 5.00

Consider the compound `CCOc1ncccc1C(=O)Nc1ccc(F)c(S(=O)(=O)Nc2ccc(Cl)cc2)c1` and give its measured pEC50.
4.70 to 5.00

Consider the compound `O=C(Nc1ccc(F)c(S(=O)(=O)Nc2ccc(Cl)cc2)c1)c1cnccc1-c1ccccc1` and give its measured pEC50.
4.00 to 4.70

Consider the compound `CCc1ccc(NC(=O)c2cnn(-c3ccc(Cl)cc3)c2C)cc1S(=O)(=O)Nc1ccc(Cl)cc1` and give its measured pEC50.
4.00 to 4.70

Consider the compound `COc1cnc(Cl)c(C(=O)Nc2ccc(OC)c(S(=O)(=O)Nc3c(C)cccc3C)c2)c1` and give its measured pEC50.
4.00 to 4.70

Consider the compound `Cn1c(=O)n(C)c2cc(C(=O)Nc3ccc(F)c(S(=O)(=O)Nc4ccc(Cl)cc4)c3)ccc21` and give its measured pEC50.
4.00 to 4.70

Consider the compound `COc1ccc(NC(=O)c2cccc(C(=O)N(C)C)c2)cc1S(=O)(=O)Nc1c(C)cccc1C` and give its measured pEC50.
4.00 to 4.70

Consider the compound `COc1ccc(NC(=O)c2cc3cc(Br)cnc3s2)cc1S(=O)(=O)Nc1c(C)cccc1C` and give its measured pEC50.
4.70 to 5.00

Consider the compound `O=C(Nc1ccc(F)c(S(=O)(=O)Nc2ccc(Cl)cc2)c1)c1cnccc1C(F)(F)F` and give its measured pEC50.
4.00 to 4.70
